- measurement target: T1, Ac-CWAcp-PPPALPPKKR.amide, C3G-derived peptide designed for attachment to an affinity column (N-terminal acetyl; ε-aminocaproic acid (Acp, B) at position 3; C-terminal amide; on the column the Cys side chain is coupled to iodoacetyl agarose (Sulfolink))
- T1 construct: also called Acetyl-CWAcp-C3G; Ac-CWBPPPALPPKKR.amide
- T1 peptide: CWPPPALPPKKR
- assay comment: Gly-[COS]-Gly array on C3G peptide affinity column, MALDI MS readout (FIG. 27A)
observable: binding result

The examples below pair each entry with its known result.
| binder | binding result |
| --- | --- |
| c-Crk N-terminal SH3 domain (134-191) analogue, dipeptide DI (157-158) replaced by Gly-[COS]-Gly (other, not fully specified; Gly-[COS]-Gly unit (-NHCH2CO-SCH2CO-) in place of D157-I158; backbone thioester (S in place of the NH of residue 158), Member of the nine-member Gly-[COS]-Gly array over cCrk(156-165); Positions count on murine c-Crk; also called DI (Gly-[COS]-Gly array)) AEYVRALFDFNGNDEEDLPFKKGGGLRIRDKPEEQWWNAEDSEGKRGMIPVPYVEKYR | binds |
| c-Crk N-terminal SH3 domain (134-191) analogue, dipeptide RD (162-163) replaced by Gly-[COS]-Gly (other, not fully specified; Gly-[COS]-Gly unit (-NHCH2CO-SCH2CO-) in place of R162-D163; backbone thioester (S in place of the NH of residue 163), Member of the nine-member Gly-[COS]-Gly array over cCrk(156-165); Positions count on murine c-Crk; also called RD (Gly-[COS]-Gly array)) AEYVRALFDFNGNDEEDLPFKKGDILRIGGKPEEQWWNAEDSEGKRGMIPVPYVEKYR | binds |
| c-Crk N-terminal SH3 domain (134-191) analogue, dipeptide LR (159-160) replaced by Gly-[COS]-Gly (other, not fully specified; Gly-[COS]-Gly unit (-NHCH2CO-SCH2CO-) in place of L159-R160; backbone thioester (S in place of the NH of residue 160), Member of the nine-member Gly-[COS]-Gly array over cCrk(156-165); Positions count on murine c-Crk; also called LR (Gly-[COS]-Gly array)) AEYVRALFDFNGNDEEDLPFKKGDIGGIRDKPEEQWWNAEDSEGKRGMIPVPYVEKYR | binds |
| c-Crk N-terminal SH3 domain (134-191) analogue, dipeptide IL (158-159) replaced by Gly-[COS]-Gly (other, not fully specified; Gly-[COS]-Gly unit (-NHCH2CO-SCH2CO-) in place of I158-L159; backbone thioester (S in place of the NH of residue 159), Member of the nine-member Gly-[COS]-Gly array over cCrk(156-165); Positions count on murine c-Crk; also called IL (Gly-[COS]-Gly array)) AEYVRALFDFNGNDEEDLPFKKGDGGRIRDKPEEQWWNAEDSEGKRGMIPVPYVEKYR | binds |

Would you kindly look at the next entry?
Ask: Fill in reported binding result for this entry: c-Crk N-terminal SH3 domain (134-191) analogue, dipeptide RI (160-161) replaced by Gly-[COS]-Gly (other, not fully specified; Gly-[COS]-Gly unit (-NHCH2CO-SCH2CO-) in place of R160-I161; backbone thioester (S in place of the NH of residue 161), Member of the nine-member Gly-[COS]-Gly array over cCrk(156-165); Positions count on murine c-Crk; also called RI (Gly-[COS]-Gly array)) AEYVRALFDFNGNDEEDLPFKKGDILGGRDKPEEQWWNAEDSEGKRGMIPVPYVEKYR
Result: binds

The reported numbers originate from patent US6495314.
